# ASSAY_PROTOCOL: CC50 assay in the anti-HCV replicon assay (CellTiter-Glo)
# Format: cell-based, human
# CONDITION_SUMMARY: human, Huh-7 hepatoma cells harbouring an HCV replicon; Huh-7 HCV replicon cells, 3 days incubation, CellTiter-Glo luminescence
PROPERTY_MEASURED: CC50 at 3 days

Nc1nc(OCC2CCC2)c2cc(-c3ccc(F)cc3Cl)ccc2n1 = 10 to 20 µM

## Task State its CC50 at 3 days: `CC(C)Oc1nc(N)nc2ccc(-c3ccncc3)cc12`
## Result 10 to 20 µM

## Task State its CC50 at 3 days: `CCOc1nc(N)nc2ccc(-c3cccc(F)c3F)cc12`
## Result 10 to 20 µM

## Task State its CC50 at 3 days: `CCOc1nc(N)nc2ccc(-c3ccoc3)cc12`
## Result > 20 µM

## Task State its CC50 at 3 days: `CCCc1ncnc2ccc(-c3ccc(F)cc3)cc12`
## Result > 20 µM

## Task State its CC50 at 3 days: `Nc1nc(OCC(F)(F)F)c2cc(-c3ccc(F)cc3)ccc2n1`
## Result 10 to 20 µM

###

The following compounds are shown together with reported CC50 at 3 days values.
# ASSAY_PROTOCOL: CC50 assay in the anti-HCV replicon assay (CellTiter-Glo)
# Type: cell-based, human
# CONDITION_SUMMARY: human, Huh-7 hepatoma cells harbouring an HCV replicon; Huh-7 HCV replicon cells, 3 days incubation, CellTiter-Glo luminescence

Sample records with CC50 at 3 days:
Nc1nc(OCCN2CCOCC2)c2cc(-c3ccoc3)ccc2n1 [Example 239] = 10 to 20 µM
CCOc1nc(N)nc2ccc(-c3ccc(C(=O)NCC(C)C)cc3)cc12 [Example 150] = 10 to 20 µM
CNC(=O)c1ccc(-c2ccc3nc(N)nc(OCCOC)c3c2)cc1 [Example 59] = > 20 µM
Nc1nc(OCC2CCC2)c2cc(-c3ccc(F)c(Cl)c3)ccc2n1 [Example 112] = > 20 µM
CC(C)N1CCC(NC(=O)c2ccc(-c3ccc4nc(N)nc(O[C@@H]5CCOC5)c4c3)cc2)CC1 [Example 225] = > 20 µM

## Task State its CC50 at 3 days: Nc1nc(OCCF)c2cc(-c3ccc(C(=O)N4CCSC4)cc3)ccc2n1 [Example 204]
## Result > 20 µM

## Task State its CC50 at 3 days: CNC(=O)c1cccc(-c2ccc3nc(N)nc(OC(C)C)c3c2)c1 [Example 186]
## Result 10 to 20 µM

## Task State its CC50 at 3 days: CC(C)CNC(=O)c1ccc(-c2ccc3nc(N)nc(OC(C)C)c3c2)cc1 [Example 171]
## Result 10 to 20 µM

## Task State its CC50 at 3 days: CC(C)Oc1nc(N)nc2ccc(-c3ccccc3OCc3ccccc3)cc12 [Example 98]
## Result < 10 µM

###

# ASSAY_PROTOCOL: CC50 assay in the anti-HCV replicon assay (CellTiter-Glo)
# Type: cell-based, human
# CONDITION_SUMMARY: human, Huh-7 hepatoma cells harbouring an HCV replicon; Huh-7 HCV replicon cells, 3 days incubation, CellTiter-Glo luminescence
PROPERTY_MEASURED: CC50 at 3 days

Sample records with CC50 at 3 days:
CCCCNC(=O)c1ccc(-c2ccc3nc(N)nc(OCC)c3c2)cc1 [Example 152] = > 20 µM
Nc1nc(O[C@H]2CCOC2)c2cc(-c3ccc(C(=O)NC4CC4)cc3)ccc2n1 [Example 215] = > 20 µM

## Task State its CC50 at 3 days: Nc1nc(O[C@@H]2CCOC2)c2cc(-c3ccc(C(=O)NCC(F)(F)F)cc3)ccc2n1 [Example 219]
## Result > 20 µM

###

# ASSAY_PROTOCOL: CC50 assay in the anti-HCV replicon assay (CellTiter-Glo)
# Type: cell-based, human
# CONDITION_SUMMARY: human, Huh-7 hepatoma cells harbouring an HCV replicon; Huh-7 HCV replicon cells, 3 days incubation, CellTiter-Glo luminescence
PROPERTY_MEASURED: CC50 at 3 days

Sample records with CC50 at 3 days:
CC(C)Oc1ncnc2ccc(-c3ccsc3)cc12 = > 20 µM
CC(C)Oc1nc(N)nc2ccc(-c3ccc(C(=O)Nc4ccc(F)cc4)cc3)cc12 = < 10 µM
CC(C)Oc1nc(N)nc2ccc(-c3ccc(F)cc3F)cc12 = 10 to 20 µM

## Task State its CC50 at 3 days: `COCCOc1nc(N)nc2ccc(-c3ccc(N)cc3)cc12`
## Result > 20 µM

## Task State its CC50 at 3 days: `CC(C)Oc1nc(N)nc2ccc(-c3ccc(Cl)cc3Cl)cc12`
## Result > 20 µM

## Task State its CC50 at 3 days: `CC(C)Oc1nc(N)nc2ccc(-c3ccn[nH]3)cc12`
## Result > 20 µM

###

# ASSAY_PROTOCOL: CC50 assay in the anti-HCV replicon assay (CellTiter-Glo)
# Format: cell-based, human
# CONDITION_SUMMARY: human, Huh-7 hepatoma cells harbouring an HCV replicon; Huh-7 HCV replicon cells, 3 days incubation, CellTiter-Glo luminescence
PROPERTY_MEASURED: CC50 at 3 days

CCOc1nc(N)nc2ccc(-c3ccc(O)cc3)cc12 [Example 51] = 10 to 20 µM
CC(C)Oc1nc(N)nc2ccc(-c3ccc(C(=O)NC4CC4)c(Cl)c3)cc12 [Example 183] = > 20 µM
CCCCNC(=O)c1ccc(-c2ccc3nc(N)nc(OCCF)c3c2)cc1 [Example 199] = > 20 µM
CCOc1nc(N)nc2ccc(-c3ccc(C(=O)Nc4ccccn4)cc3)cc12 [Example 160] = > 20 µM

## Task State its CC50 at 3 days: COCCOc1nc(N)nc2ccc(-c3cccc(F)c3F)cc12 [Example 52]
## Result 10 to 20 µM

## Task State its CC50 at 3 days: CN(C)CCCOc1nc(N)nc2ccc(-c3ccc(Cl)cc3Cl)cc12 [Example 229]
## Result > 20 µM

###

# ASSAY_PROTOCOL: CC50 assay in the anti-HCV replicon assay (CellTiter-Glo)
# Type: cell-based, human
# CONDITION_SUMMARY: human, Huh-7 hepatoma cells harbouring an HCV replicon; Huh-7 HCV replicon cells, 3 days incubation, CellTiter-Glo luminescence
PROPERTY_MEASURED: CC50 at 3 days

Sample records with CC50 at 3 days:
CC(C)Oc1nc(N)nc2ccc(-c3ccc(O)cc3)cc12 [Example 100] = 10 to 20 µM
CC(C)Oc1nc(N)nc2ccc(-c3ccc(C(=O)N(C)C)cc3)cc12 [Example 127] = > 20 µM
COc1ccc(-c2ccc3nc(N)nc(OC(C)C)c3c2)cc1OC [Example 18] = < 10 µM
Nc1nc(OCC2CCC2)c2cc(-c3ccc(F)cc3F)ccc2n1 [Example 102] = < 10 µM
CC(C)Oc1nc(N)nc2ccc(-c3ccc(C(=O)NCc4ccccc4)cc3)cc12 [Example 170] = < 10 µM
CC(C)Oc1nc(N)nc2ccc(-c3ccc(C(=O)N4CCSCC4)cc3)cc12 [Example 180] = 10 to 20 µM
CCOc1ncnc2ccc(-c3ccc(F)cc3)cc12 [Example 34, 4-ethoxy-6-(4-fluorophenyl)-quinazoline] = > 20 µM
CCOc1nc(N)nc2ccc(-c3ccc(C(=O)NC4CCCCC4)cc3)cc12 [Example 151] = 10 to 20 µM

Consider the record given below.
## Task State its CC50 at 3 days: Nc1nc(OCCF)c2cc(-c3ccc(C(=O)NC4CC4)c(Cl)c3)ccc2n1 [Example 208]
## Result > 20 µM

###

The following molecules are shown together with reported CC50 at 3 days values.
# ASSAY_PROTOCOL: CC50 assay in the anti-HCV replicon assay (CellTiter-Glo)
# Type: cell-based, human
# CONDITION_SUMMARY: human, Huh-7 hepatoma cells harbouring an HCV replicon; Huh-7 HCV replicon cells, 3 days incubation, CellTiter-Glo luminescence
# Procedure: The anti HCV activity of the quinazoline derivatives of this invention was tested in a human hepatoma Huh-7 cell line harbouring a HCV replicon. The assay comprised the following steps: Step 1: compound preparation and serial dilution • 1. for water soluble quinazoline derivatives, a volume of 500 μL of solution in cell media (DMEM, 10% FBS, P/S, L-Glutamine) was prepared with a concentration being twice the concentration of the starting final serial dilution concentration. […]

CN(C)CCNC(=O)c1ccc(-c2ccc3nc(N)nc(O[C@H]4CCOC4)c3c2)cc1 = > 20 µM

## Task State its CC50 at 3 days: `Nc1nc(OCCO)c2cc(-c3ccc(C(=O)N4CCSC4)cc3)ccc2n1`
## Result > 20 µM

###

The following compounds are shown together with reported CC50 at 3 days values.
# ASSAY_PROTOCOL: CC50 assay in the anti-HCV replicon assay (CellTiter-Glo)
# Assay type: cell-based, human
# CONDITION_SUMMARY: human, Huh-7 hepatoma cells harbouring an HCV replicon; Huh-7 HCV replicon cells, 3 days incubation, CellTiter-Glo luminescence

Sample records with CC50 at 3 days:
CONC(=O)c1ccc(-c2ccc3nc(N)nc(OC(C)C)c3c2)cc1 [Example 177] = 10 to 20 µM
COCCOc1nc(N)nc2ccc(-c3ccc(F)cc3C)cc12 [Example 67] = 10 to 20 µM
Nc1nc(OCC2CCC2)c2cc(-c3cccnc3)ccc2n1 [Example 118] = 10 to 20 µM
CN(C)CCCOc1nc(N)nc2ccc(-c3cccc(C(F)(F)F)c3)cc12 [Example 233] = > 20 µM
CCOc1nc(N)nc2ccc(-c3ccn[nH]3)cc12 [Example 41] = > 20 µM
CC(C)Oc1nc(N)nc2ccc(-c3cccc(C(F)(F)F)c3)cc12 [Example 76] = > 20 µM
COCCOc1nc(N)nc2ccc(-c3ccc(Cl)c(C(F)(F)F)c3)cc12 [Example 69] = > 20 µM
CCOc1nc(N)nc2ccc(-c3ccc(C(=O)NC(C)C)cc3)cc12 [Example 155] = 10 to 20 µM
CCOc1nc(N)nc2ccc(-c3ccc(C(=O)NC4CCCC4)cc3)cc12 [Example 154] = 10 to 20 µM
CCOc1nc(N)nc2ccc(-c3ccsc3)cc12 [Example 45] = > 20 µM

## Task State its CC50 at 3 days: Nc1nc(OCCN2CCOCC2)c2cc(-c3ccsc3)ccc2n1 [Example 236]
## Result > 20 µM

## Task State its CC50 at 3 days: Nc1nc(OCCN2CCOCC2)c2cc(-c3cccc(C(F)(F)F)c3)ccc2n1 [Example 242]
## Result 10 to 20 µM

## Task State its CC50 at 3 days: CC(C)Oc1nc(N)nc2ccc(-c3ccc(C(=O)NCCN(C)C)cc3)cc12 [Example 178]
## Result < 10 µM
